Target: Mitogen-activated protein kinase 8 (Homo sapiens)
Settings: at 10 µM
Description: Millipore: Percentage of residual kinase activity of MAPK8 at 10uM relative to control. Control inhibitor: Jnk Inhibitor II at 100.0uM. Buffer: 50 mM Tris pH 7.5, 0.1 mM EGTA, 0.1% ? -mercaptoethanol
Measured residual activity accompanies every entry in the list below.
assay.readout: residual activity (%)

>>> experimental_value("Oc1ccc(Nc2nc(-c3ccc(Cl)cc3)cs2)cc1")
101
>>> experimental_value("CN(C)c1ccc(/C=C2\\C(=O)Nc3ccccc32)cc1")
93
>>> experimental_value("N#CC(C#N)=C(N)/C(C#N)=C/c1ccc(O)cc1")
83
>>> experimental_value("COc1cc2ncnc(Nc3ccc(Oc4ccccc4)cc3)c2cc1OC")
110
>>> experimental_value("CC(C)n1cnc2/c(=N/c3cccc(Cl)c3)nc(NCCO)[nH]c21")
89
>>> experimental_value("O=C(Nc1cccc(Nc2cc(Nc3cccc(C(F)(F)F)c3)ncn2)c1)C1CC1")
83
>>> experimental_value("CC(=O)O/N=C1\\C(=C2\\C(=O)Nc3cc(Br)ccc32)Nc2ccccc21")
94
>>> experimental_value("O=C1NC(=O)/C(=C/c2ccc3c(c2)OC(F)(F)O3)S1")
106
>>> experimental_value("c1ccc2c(-c3ccncc3)c[nH]c2c1")
78
>>> experimental_value("Cn1nc2c3c(cccc31)C(=O)c1ccccc1-2")
83
>>> experimental_value("CCN(CC)CCCCN1c2ccccc2Oc2ccc(Cl)cc21")
91
